measuredTarget: human neutrophil elastase (HNE) (Homo sapiens, UniProt P08246)
Sequence (P08246 30-247): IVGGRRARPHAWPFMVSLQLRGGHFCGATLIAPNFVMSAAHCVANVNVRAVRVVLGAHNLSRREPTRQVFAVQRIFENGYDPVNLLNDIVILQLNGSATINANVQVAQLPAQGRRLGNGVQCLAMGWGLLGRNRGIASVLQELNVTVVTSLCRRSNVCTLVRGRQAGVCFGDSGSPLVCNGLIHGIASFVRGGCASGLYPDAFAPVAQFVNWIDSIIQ
method: chromogenic enzymatic assay with purified HNE, absorbance at […] nm
testReadout: IC50 (µM)

{"molecule": "CC(NC(=O)c1ccccc1/N=C/c1c(O)ccc2ccccc12)c1ccccc1 (stereo not shown) [Sirtinol]", "testReadout": "IC50", "recordedValue": 8.4}
